assay.summary: protease stability score; higher = more stable; yeast display proteolysis, trypsin and chymotrypsin;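 also: log10 excess protease needed over predicted unfolded state with 0 meaning unfolded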
quantity.kind: protease stability score

item.sequence: EEETVKHLVQLFRTGDWDQLAKEMRDNVEVIIGDKRLHGRENAEQLARILKKHIDHQSYESMTFHNGKLVMKYEFVFNGRRVRARLVVNVHNGKIVNMQLDFTDPRDERLWKKVVE
experimental.value: 1.66
//
item.sequence: DDDNFRRFKDLQHAENRGDPDRVMELVDPNAHIRVGNTTLKGTKQIKDWVEHILKNWDEQLHSVDEKFQGNHITARYQMEINVNGEPEHFDVTQMATLDNGKIQNRVVRVSEDDLENIER
experimental.value: -0.247
//
item.sequence: DEKRQAKEYVKHFDEVIETNDPDQLNELMDKDVRLDIGETKVSGRDDAKKWAKELVDQIDHVRVNVRKVDVQGDTIKVEVDIQIQYNGRHEQRVLHFTAVLSNGRAKIKRFTVE
experimental.value: 0.559
//
item.sequence: DERAKEVFKELIEAWKHGNEDQVREMADKDARFTVGDKEIHGREEWAKQIRERHEKIRFEMRIRHVHVNGDRLSIEADFSVDINGQPLSYRMKIELRIHNGKIKELVFQVSEEDKNKQKR
experimental.value: 0.576
//
item.sequence: DERNSELLKKVQEAWDHGDPRKLDEQMDPNAKVNVGDKNLHGKEQLRNTLEEDTRHSRVRVDYDSVTDHNGRVRASATFQDVINGKPVRDTFDFVAEVNNGKMKMLKVRVPEDNKRKLKR
experimental.value: 0.022
